test: Half life was determined
valueKind: half-life (h)
Answers are plain numbers, in h.

Example entries and their recorded answers appear below.
>  <compound>
CC(C)NC(=O)OCc1c(COC(=O)NC(C)C)c(-c2ccc(Cl)c(Cl)c2)n2c1CC(O)C2 (stereo not given)

>  <half-life [h]>
0.517

$$$$
>  <compound>
CC(C)NC(=O)OCc1c(COC(=O)NC(C)C)c(-c2ccc(Cl)c(Cl)c2)n2c1CC(OC(=O)CN(C)C)C2 (stereo not given)

>  <half-life [h]>
4.13

$$$$
>  <compound>
CC(C)NC(=O)OCc1c(COC(=O)NC(C)C)c(-c2ccc(Cl)c(Cl)c2)n2c1CCC2

>  <half-life [h]>
0.217

$$$$

// each compound listed below needs its half-life
1. CC(C)NC(=O)OCc1c(COC(=O)NC(C)C)c(-c2ccc(Cl)c(Cl)c2)n2c1CC(OC(=O)CCC(=O)[O-])C2.[K+] (stereo not given)
2. CC(C)NC(=O)OCc1c(COC(=O)NC(C)C)c(-c2ccc(Cl)c(Cl)c2)n2c1CC(OC(=O)CCC(=O)O)C2.CN(C)c1ccncc1 (stereo not given)

stdout:
[1.53, 2.55]

----------
assay: Water solubility of the compound; format: ADME; conditions: read-out: S
If the reported solubility equals or exceeds 40 µM, assign Yes. If not, assign No.

// below: answered compounds
>  <compound>
CC(C)NC(=O)OCc1c(COC(=O)NC(C)C)c(-c2ccc(Cl)c(Cl)c2)n2c1CC(OC(=O)CN(C)C)C2 (stereo not given)

>  <group>
No

$$$$
>  <compound>
CC(C)NC(=O)OCc1c(COC(=O)NC(C)C)c(-c2ccc(Cl)c(Cl)c2)n2c1CCC2

>  <group>
No

$$$$
>  <compound>
CC(C)NC(=O)OCc1c(COC(=O)NC(C)C)c(-c2ccc(Cl)c(Cl)c2)n2c1CC(OC(=O)CCC(=O)[O-])C2.[K+] (stereo not given)

>  <group>
Yes

$$$$

stdin: Say whether CC(C)NC(=O)OCc1c(COC(=O)NC(C)C)c(-c2ccc(Cl)c(Cl)c2)n2c1CC(OC(=O)CCC(=O)O)C2.CN(C)c1ccncc1 (stereo not given) shows solubility of 40 µM or more.
stdout: Yes
